Listing of entries alongside the reported normalized growth.
- assay.name: chemical genetic growth profiling, strain panel (AID 1159580);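 also: tested at 20 µM; growth read once vehicle control cultures reached saturation at 30 °C; 1 = growth at the plate median or of vehicle wells; lower values mean less growth of the strain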
- condition.description: S. cerevisiae deletion strains, growth OD, locus YGR040W, strain KSS1, hits give low values
Out of some 5,500 compounds screened, about 2,000 (36%) were called active. About 18% were inconclusive and are not listed. The list shows a part of the results.
Respond using a number only.

### Prompt # get_value(readout='normalized growth', item= O=C1C(Cl)=C(Oc2cc(Cl)c(Cl)cc2Cl)C(=O)c2ccccc21 )
### Response 0.14

### Prompt # query: normalized growth of entry COc1ccccc1NC(=S)N/N=C\c1ccccc1O
### Response 0.939

### Prompt Fill in: normalized growth of CC(C)(C)C(=O)NC(=S)N/N=C\c1cc(Cl)cc(Cl)c1O is ___
### Response 0.546

----------
- assay.name: chemical genetic growth profiling, strain panel (AID 1159580);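 also: tested at 20 µM; growth read once vehicle control cultures reached saturation at 30 °C; 1 = growth at the plate median or of vehicle wells; lower values mean less growth of the strain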
- condition.description: S. cerevisiae deletion strains, growth OD, locus YNL233W, strain BNI4, hits give low values
Hit rate of the full screen: of about 5,500 compounds, about 2,000 (36%) were called active. Inconclusive results (about 18%) are left out. The list shows a part of the results.
property: normalized growth
Provide a numeric answer; units are not to be included.

### Prompt Endpoint output: normalized growth of CC1CC[C@@]2(OC1)O[C@H]1CC3C4CC[C@@H]5CC(=O)CC[C@]5(C)C4CC[C@]3(C)[C@H]1[C@@H]2C (stereo partly specified) . Value?
### Response 0.972

### Prompt Quick one: normalized growth of CCCCOc1cc(C(=O)NCCN(CC)CC)c2ccccc2n1 ?
### Response 0.997

### Prompt Record request: normalized growth value, item CNC(=O)Oc1cccc2c1OC(C)(C)O2
### Response 1.02

### Prompt Suppose we examine the compound CCC/C=C1\OC(=O)C2=C1CCC=C2 ; what normalized growth value has been reported?
### Response 0.992

----------
- assay.name: chemical genetic growth profiling, strain panel (AID 1159580);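 also: tested at 20 µM; growth read once vehicle control cultures reached saturation at 30 °C; 1 = growth at the plate median or of vehicle wells; lower values mean less growth of the strain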
- condition.description: S. cerevisiae deletion strains, growth OD, locus YAL030W, strain snc1, hits give low values
Among all 5,500 compounds or so, about 2,000 (36%) were called active. Not shown: some 18% with an inconclusive outcome. Some of the results follow.
property: normalized growth
Give the figure only, with no unit attached.

CC(C1OC(C)(C)C(O)C1O)[C@@H]1CC[C@]2(C)C3=CCC4C(C)(C)C(=O)CC[C@]4(C)C3CC[C@@]12C (some centres not stated)    1

### Prompt Fill in the blank: the reported normalized growth of CCCCCC(=O)Cc1cc(O)cc(O)c1C(=O)Oc1cc(CC(=O)CCCCC)c(C(=O)O)c(OC)c1 is ____.
### Response 0.934

### Prompt Entry under review: CCN[C@@H]1C[C@H](N)[C@@H](O[C@H]2OC(CN)=CC[C@H]2N)[C@H](O)[C@H]1OC1OC[C@](C)(O)[C@H](NC)[C@H]1O (some centres not stated) . Reported normalized growth?
### Response 1.01

----------
- assay.name: chemical genetic growth profiling, strain panel (AID 1159580);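 also: tested at 20 µM; growth read once vehicle control cultures reached saturation at 30 °C; 1 = growth at the plate median or of vehicle wells; lower values mean less growth of the strain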
- condition.description: S. cerevisiae deletion strains, growth OD, locus YCL011C, strain gbp2, hits give low values
About 2,000 (36%) of roughly 5,500 compounds were called active. About 18% were inconclusive and are not listed. This is one part of the list.
property: normalized growth
API doc: respond with a numeric literal and nothing else, no unit.

### Prompt Using the record for C[C@]12CCC3c4ccc(O)cc4CCC3C1CC[C@@H]2O (stereo not given in full) , report its normalized growth.
### Response 0.988

### Prompt What measured normalized growth goes with O=c1cc(-c2ccc(O)cc2)oc2cc(O[C@@H]3O[C@H](CO)[C@@H](O)[C@H](O)[C@H]3O)cc(O)c12 ?
### Response 0.992

### Prompt What value of normalized growth has been reported for the following compound? OCC(O)C(O)C(O)C(O)C(O)CO (stereo not given)
### Response 0.999

### Prompt Entry COc1ccc2c(c1)CCC1C2CCC2(C)C1C[C@@H](O)C2O (stereo not given in full) : reported normalized growth = ?
### Response 0.977

### Prompt // normalized growth lookup, key: CC(=O)Oc1ccc2c(c1C(C)C)CCC1C(C)(C)CCC[C@]21C (stereo not given in full)
### Response 1.02
